B1: H2-Kb / H6 (parent)
chain 1: AQKVTQTQTSISVMEKTTVTMDCVYETQDSSYFLFWYKQTASGEIVFLIRQDSYKKENATVGHYSLNFQKPKSSIGLIITATQIEDSAVYFCAMRDYNQGKLIFGQGTKLSIKP
chain 2: EAAVTQSPRSKVAVTGGKVTLSCHQTNNHDYMYWYRQDTGHGLRLIHYSYVADSTEKGDIPDGYKASRPSQENFSLILELASLSQTAVYFCASSGTAANSDYTFGSGTRLLVI
chain 3: not shown
chain 4: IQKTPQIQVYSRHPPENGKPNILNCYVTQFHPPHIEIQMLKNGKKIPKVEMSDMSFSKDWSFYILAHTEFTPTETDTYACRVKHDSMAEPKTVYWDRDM
chain 5: SIINFEKL

Variants of: B1
Assay: % of reporter cells activated (NFAT-GFP), raw; note: test concentration or dose not given here
Conditions: with H6; scale: % of reporter cells activated
ratio to parent under 0.3 gets 1.0, anything at or over 0.3 gets 0.0.

Consider the following illustrative entries.
[[record]]
sequence_change = "chain 5 S1G"
class = 0.0

[[record]]
sequence_change = "chain 5 S1E"
class = 0.0

[[record]]
sequence_change = "chain 5 K7T"
class = 1.0

[[record]]
sequence_change = "chain 5 S1C"
class = 1.0


Criterion: ratio to parent strictly below 0.3. Is it met by chain 5 L8H ? 0.0

Entry source: paper PMC11480844
